# subject.of.test: Endothelial PAS domain-containing protein 1 (Homo sapiens)
# test: HIF-2a and HIF-1a reporter inhibition panel, dose response, selectivity assay for HIF-2a inhibitor project, cell-based, luminescence (AID 651581)
# stated.conditions: HIF-2a PANC, run 1
Consider the following molecules and their measured IC50 readings.
quantity.name: IC50 (µM)

{"columns": ["smiles.entry", "qual", "readout.number"],
 "data": [
  ["CN(C)c1ccc(Nc2nc(N)c3ccccc3n2)cc1", "=", 24.8],
  ["CSc1ccc(/C=N/Nc2cccc(C(=O)O)c2)cc1", ">", 99],
  ["O=C(Nc1ccc(N2CCOCC2)cc1)c1cnccn1", "=", 31.5],
  ["COC(=O)c1cccc(-c2noc(-c3ccccc3F)n2)c1", "=", 9.59],
  ["O=C(OCC(F)(F)F)c1cccc(COc2ccc3ccccc3c2)c1", ">", 99],
  ["NNC(=O)COc1ccc(-c2nccc(-c3ccc(F)cc3)n2)cc1", "=", 2.39]
]}

---

# subject.of.test: Endothelial PAS domain-containing protein 1 (Homo sapiens)
# test: HIF-2a and HIF-1a reporter inhibition panel, dose response, selectivity assay for HIF-2a inhibitor project, cell-based, luminescence (AID 651581)
# stated.conditions: HIF-2a, mean of runs
Calls of active or inactive are those of the source. How the calls were made is not given here.
Possible outcomes: TRUE (active), FALSE (inactive)

{"columns": ["molecule", "subject.of.test", "class"],
 "data": [
  ["O=S(=O)(Nc1cccc2cccnc12)c1ccccc1", "Endothelial PAS domain-containing protein 1 (Homo sapiens)", "TRUE"],
  ["Cc1ccc(C)c(S(=O)(=O)ON2C(=O)c3ccccc3C2=O)c1", "Endothelial PAS domain-containing protein 1 (Homo sapiens)", "TRUE"],
  ["Cc1nc2cc(-c3cccc(F)c3)nn2c(C)c1CCC(=O)NC(C)c1ccc2c(c1)OCCO2 (stereo unspecified)", "Endothelial PAS domain-containing protein 1 (Homo sapiens)", "TRUE"],
  ["CCOC(=O)Cc1csc(NC(=S)NC(=O)c2ccc([N+](=O)[O-])cc2)n1", "Endothelial PAS domain-containing protein 1 (Homo sapiens)", "TRUE"],
  ["Cc1nc(SCc2ccc(C(=O)O)cc2)nc2c1CCCC2", "Endothelial PAS domain-containing protein 1 (Homo sapiens)", "TRUE"],
  ["O=C(O)c1cccc(CSc2nnc(COc3ccccc3)o2)c1", "Endothelial PAS domain-containing protein 1 (Homo sapiens)", "TRUE"],
  ["O=C(Nc1ccc(F)cc1)c1nc(S(=O)(=O)Cc2ccccc2)ncc1Cl", "Endothelial PAS domain-containing protein 1 (Homo sapiens)", "TRUE"],
  ["O=C(NNc1nc2ccccc2o1)c1ccccc1", "Endothelial PAS domain-containing protein 1 (Homo sapiens)", "TRUE"],
  ["CC(=O)c1ccc(NC(=O)c2cnn3ccccc23)cc1", "Endothelial PAS domain-containing protein 1 (Homo sapiens)", "FALSE"],
  ["COc1ccc(OCc2cccc(C(=O)NN)c2)cc1", "Endothelial PAS domain-containing protein 1 (Homo sapiens)", "TRUE"],
  ["Cc1nc2cc(-c3cccc(F)c3)nn2c(C)c1CCC(=O)N1CCC2(CC1)OCCO2", "Endothelial PAS domain-containing protein 1 (Homo sapiens)", "TRUE"]
]}

---

We begin with a simple list: items and their reported IC50.
# subject.of.test: Hypoxia-inducible factor 1-alpha (Homo sapiens)
# test: HIF-2a and HIF-1a reporter inhibition panel, dose response, selectivity assay for HIF-2a inhibitor project, cell-based, luminescence (AID 651581)
# stated.conditions: HIF-1a, run 1
quantity.name: IC50 (µM)

{"columns": ["compound", "subject.of.test", "display.unit", "qual", "readout.number"],
 "data": [
  ["CC(C)(C)c1ccc(-c2noc(CCC(=O)NCc3ccco3)n2)cc1", "Hypoxia-inducible factor 1-alpha (Homo sapiens)", "µM", "<", 0.19],
  ["O=C(O)c1cccc(CSc2nnc(-c3ccc(Cl)cc3)o2)c1", "Hypoxia-inducible factor 1-alpha (Homo sapiens)", "µM", ">", 99],
  ["O=C(O)c1ccc(N/N=C/c2ccc3ncccc3c2)cc1", "Hypoxia-inducible factor 1-alpha (Homo sapiens)", "µM", "=", 18.8],
  ["CC(=O)Nc1ccc(OCC(=O)c2ccc(C)cc2C)cc1", "Hypoxia-inducible factor 1-alpha (Homo sapiens)", "µM", "=", 4.55],
  ["Nc1nc2ccc(S(=O)(=O)c3ccc4nc(N)sc4c3)cc2s1", "Hypoxia-inducible factor 1-alpha (Homo sapiens)", "µM", "=", 71.7],
  ["N#Cc1ccccc1COc1ccc(/C=C/C(=O)O)cc1", "Hypoxia-inducible factor 1-alpha (Homo sapiens)", "µM", "=", 1.56],
  ["COc1ccc(OCc2cccc(C(=O)Nn3cc([N+](=O)[O-])cn3)c2)cc1", "Hypoxia-inducible factor 1-alpha (Homo sapiens)", "µM", "=", 32.1],
  ["O=Cc1ccc(-c2cccs2)s1", "Hypoxia-inducible factor 1-alpha (Homo sapiens)", "µM", ">", 99],
  ["Cc1ccc(S(=O)(=O)c2ncccc2[N+](=O)[O-])cc1", "Hypoxia-inducible factor 1-alpha (Homo sapiens)", "µM", "=", 21.3],
  ["Cc1ccc(/C=N/Nc2cccc(C(=O)O)c2)s1", "Hypoxia-inducible factor 1-alpha (Homo sapiens)", "µM", ">", 99],
  ["CCOc1ccc(C(=O)Nc2nnc(SCC(=O)NCC3CCCO3)s2)cc1 (configuration not stated)", "Hypoxia-inducible factor 1-alpha (Homo sapiens)", "µM", ">", 99],
  ["O=C(CSc1nnc(-c2ccc(Br)cc2)o1)Nc1cccc(C(=O)O)c1", "Hypoxia-inducible factor 1-alpha (Homo sapiens)", "µM", ">", 99]
]}

---

# subject.of.test: Endothelial PAS domain-containing protein 1 (Homo sapiens) (UniProt Q99814)
# test: HIF-2a and HIF-1a reporter inhibition panel, dose response, selectivity assay for HIF-2a inhibitor project, cell-based, luminescence (AID 651581)
# stated.conditions: HIF-2a PANC, mean of runs
Overview of reported IC50 across a group of molecules:

{"columns": ["smiles.entry", "IC50"],
 "data": [
  ["Cc1nc2cc(-c3ccccc3)nn2c(C)c1CCC(=O)NCc1ccco1", "4.77 µM"],
  ["COc1ccc(/C=N\\n2nnc3ccccc32)cc1", "7.03 µM"],
  ["CC(=O)Nc1ccc(NC(=O)c2c([N+](=O)[O-])c(C(C)(C)C)nn2C)cc1", "11 µM"],
  ["COc1cc(OC)cc(-c2nnc(Nc3nc4c(F)cccc4s3)o2)c1", "6.26 µM"],
  ["CCOC(=O)NC(=O)COC(=O)CCCSc1nc2ccccc2s1", "11.3 µM"],
  ["COc1ccc(-n2nc3ccc(N)cc3n2)cc1", "2.26 µM"],
  ["Cc1c(CCC(=O)O)c(=O)oc2cc3oc4c(c3cc12)CCCC4", "0.708 µM"],
  ["Cc1ccc(S(=O)(=O)c2ncccc2[N+](=O)[O-])cc1", "18.7 µM"],
  ["Cc1nc2cc(-c3ccc(Cl)cc3)nn2c(C)c1CCC(=O)NCc1ccco1", "0.787 µM"],
  ["CCOC(=O)Cc1csc(N/N=C/c2ccc(C(F)(F)F)cc2)n1", "0.711 µM"]
]}

---

# subject.of.test: Endothelial PAS domain-containing protein 1 (Homo sapiens)
# test: HIF-2a and HIF-1a reporter inhibition panel, dose response, selectivity assay for HIF-2a inhibitor project, cell-based, luminescence (AID 651581)
# stated.conditions: HIF-2a PANC, run 2
quantity.name: log10(IC50) (log10 of the value in µM)

{"columns": ["smiles.entry", "log10(IC50)"],
 "data": [
  ["CCOC(=O)CNC(=O)CSc1nnc(NC(=O)c2ccc(C)cc2)s1", 1.41],
  ["O=C(Nc1cc(S(=O)(=O)N2CCOCC2)ccc1Cl)c1cc([N+](=O)[O-])ccc1Cl", 1.91],
  ["CCOc1ccc(OCc2cccc(C(=O)N/N=C/c3cccnc3)c2)cc1", 1.08],
  ["O=Nc1c(O)ccc2cc(S(=O)(=O)O)ccc12", 1.71],
  ["Cc1cc(NC(=O)c2ccccc2)c(Cl)cc1N", 1.29],
  ["COc1cc(N2C(=O)C=CC2=O)c(OC)cc1Cl", 1.66],
  ["Nc1ccc(-c2cc3ccccc3c(=O)o2)cc1", -0.21],
  ["CCOC(=O)Cc1csc(NC(=S)NC(=O)c2ccccc2C)n1", 1.69],
  ["Cc1nc(SCc2cccc(C(=O)O)c2)nc2c1CCCC2", 1.82],
  ["NCCN1C(=O)S/C(=C\\c2ccc3c(c2)OCO3)C1=O", 0.64]
]}

---

# subject.of.test: Endothelial PAS domain-containing protein 1 (Homo sapiens)
# test: HIF-2a and HIF-1a reporter inhibition panel, dose response, selectivity assay for HIF-2a inhibitor project, cell-based, luminescence (AID 651581)
# stated.conditions: HIF-2a PANC, run 2
# note: exactly 0.9 µM is not below, so it is -1; use 1 for IC50 strictly under it

{"columns": ["compound", "class"],
 "data": [
  ["Cc1ccc(C(C)C)c(OCc2ccc(-c3nnco3)cc2)c1", -1],
  ["O=C(CCCSc1nc2ccccc2s1)NC1=NCCS1", -1],
  ["O=C(O)c1cccc(-c2nnn(Cc3ccccc3Cl)n2)c1", -1],
  ["CCOc1ccc(-c2cc(CCCC(=O)Nc3cc(OC)ccc3OC)no2)cc1", 1],
  ["CCOC(=O)C1CCN(C(=O)CCc2c(C)nc3cc(-c4ccccc4)nn3c2C)CC1", -1],
  ["CCOC(=O)Cc1csc(N/N=C/c2ccc(C(F)(F)F)cc2)n1", 1],
  ["COc1ccccc1C(C[N+](=O)[O-])c1c(N)n(C)c(=O)n(C)c1=O (stereo unspecified)", -1],
  ["Cc1nc2cc(-c3ccc(Cl)cc3)nn2c(C)c1CCC(=O)NCc1ccco1", 1],
  ["Cc1nn(-c2ccccc2)c(Cl)c1/C=N/Nc1ccc(Cl)c(C(=O)O)c1", -1],
  ["COc1cccc(NC(=O)c2nc(S(C)(=O)=O)ncc2Cl)c1", -1],
  ["CCC(=O)Nc1cccc(C(=O)c2ccc(C)c(C)c2)c1", -1]
]}

Reference for the values: PubChem BioAssay AID651581
